molecules and their reported IC50
system: HIV-1 gp160 (HXB2 strain) mediated cell/cell fusion; assay: Cell/cell fusion assay (HOS hCXCR4/hCCR5/hCD4/pHIV-LTR-luciferase cells with HEK-293 cells expressing HIV-1 tat, rev, gp160), luciferase readout; type: cell-based; settings: Homo sapiens, HEK293, 24 h, read-out: Fusion assay (pIC50) (converted)

| Molecule | Test Target | IC50, nM |
| --- | --- | --- |
| CN1CCOC(Cn2c(CN(C)C3CCCc4cccnc43)nc3ccccc32)C1 (stereo not shown) | HIV-1 gp160 (HXB2 strain) mediated cell/cell fusion | 38 |
| CN(Cc1nc2ccccc2n1Cc1ccc(CN)cc1)C1CCCc2cccnc21 (stereo not shown) | HIV-1 gp160 (HXB2 strain) mediated cell/cell fusion | 708 |
| CN(Cc1nc2ccccc2n1CCCCN)C1CCCc2cccnc21 (stereo not shown) | HIV-1 gp160 (HXB2 strain) mediated cell/cell fusion | 126 |
| CN(C)C/C=C\Cn1c(CN(C)C2CCCc3cccnc32)nc2ccccc21 (stereo not shown) | HIV-1 gp160 (HXB2 strain) mediated cell/cell fusion | 20.4 |

---

target: CXCR4 receptor (Homo sapiens); construct: expressed in transfected cells; host or cells: HEK-293 cells (stably expressing human macrophage scavenger receptor) transduced with human CXCR4 BacMam and Gqi5 BacMam; assay: Functional FLIPR assay (block of SDF-1 alpha induced [Ca2+]i change); assay type: cell-based; conditions: HEK-293 cells, human CXCR4 BacMam and Gqi5 BacMam, read-out: Functional assay (pIC50) (converted)
Sequence (P61073 whole entry): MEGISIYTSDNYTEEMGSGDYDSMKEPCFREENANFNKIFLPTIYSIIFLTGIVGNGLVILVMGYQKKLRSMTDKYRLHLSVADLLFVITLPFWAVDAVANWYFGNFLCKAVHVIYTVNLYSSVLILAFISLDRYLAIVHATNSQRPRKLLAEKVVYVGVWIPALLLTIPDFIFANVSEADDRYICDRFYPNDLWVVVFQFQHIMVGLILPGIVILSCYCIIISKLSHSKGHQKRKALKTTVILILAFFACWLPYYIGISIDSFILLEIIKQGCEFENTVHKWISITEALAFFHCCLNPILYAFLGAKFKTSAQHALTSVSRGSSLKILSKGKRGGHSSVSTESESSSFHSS
compounds and their reported log10 of IC50
Measure: log10 of IC50 (log10 of the value in nM)

| Compound | log10 of IC50 |
| --- | --- |
| CN1CC(Cn2c(CN(C)C3CCCc4cccnc43)nc3ccccc32)C1 (stereo not drawn) [Example 10e] | 2.07 |
| CN1CCC(Cn2c(CN(C)C3CCCc4cccnc43)nc3ccccc32)C1 (stereo not drawn) [Example 8d] | 1.87 |
| CN1CCOC(Cn2c(CN(C)C3CCCc4cccnc43)nc3ccccc32)C1 (stereo not drawn) [Example 25] | 1.47 |
| CN1CCC(n2c(CN(C)C3CCCc4cccnc43)nc3ccccc32)CC1 (stereo not drawn) [Example 11i] | 1.57 |
| CN(Cc1nc2ccccc2n1Cc1ccc(CN)cc1)C1CCCc2cccnc21 (stereo not drawn) [Example 14] | 2.45 |
| CN1CCCCC1CCn1c(CN(C)C2CCCc3cccnc32)nc2ccccc21 (stereo not drawn) [Example 23e] | 1.24 |
| CN(Cc1nc2ccccc2n1Cc1ccc(CNCc2ccccn2)cc1)C1CCCc2cccnc21 (stereo not drawn) [Example 12] | 2.35 |
| CC(C)CCN(Cc1nc2ccccc2n1CCCN)C1CCCc2cccnc21 (stereo not drawn) [Example 22] | 1.75 |
| CN(Cc1nc2ccccc2n1CCN)C1CCCc2cccnc21 (stereo not drawn) [Example 18] | 2.22 |

---

compounds and their reported pIC50
system: HIV-1 IIIB; test: HOS HIV-1 infectivity assay; assay type: cell-based; details: Human immunodeficiency virus 1, IIIB; as determined by the infectivity assay; strain not stated in Table 2; read-out: Activity Level
pIC50: −log10 of the molar value.

| Compound | pIC50 |
| --- | --- |
| CC(C)CCN(Cc1nc2ccccc2n1CCCCN)C1CCCc2cccnc21 (stereo not shown) | 6.30 to 7.00 |
| CN(C)Cc1ccc(-n2c(CN(C)C3CCCc4cccnc43)nc3ccccc32)cc1 (stereo not shown) | 5.00 to 6.30 |
| CCCN/C(=N\C#N)N1CCC[C@H](Cn2c(CN(C)[C@H]3CCCc4cccnc43)nc3ccccc32)C1 | 6.30 to 7.00 |
| CN(C)Cc1ccccc1Cn1c(CN(C)C2CCCc3cccnc32)nc2ccccc21 (stereo not shown) | 6.30 to 7.00 |

---

biological target: CXCR4 receptor (Homo sapiens); construct: expressed in transfected cells; host or cells: HEK-293 cells (stably expressing human macrophage scavenger receptor) transduced with human CXCR4 BacMam and Gqi5 BacMam; test: Functional FLIPR assay (block of SDF-1 alpha induced [Ca2+]i change); type: cell-based; settings: HEK-293 cells, human CXCR4 BacMam and Gqi5 BacMam, read-out: Functional assay (pIC50) (converted)
Measure: log10(IC50) (log10 of the value in nM)

| Compound | Test Target | log10(IC50) |
| --- | --- | --- |
| NCCCn1c(CN(Cc2ccccc2)C2CCCc3cccnc32)nc2ccccc21 (stereo not drawn) [Example 21] | CXCR4 receptor (Homo sapiens) | 2.46 |
| CN1CCN(CCCn2c(CN(C)C3CCCc4cccnc43)nc3ccccc32)CC1 (stereo not drawn) [Example 9] | CXCR4 receptor (Homo sapiens) | 2.13 |
| CN(C)CCCn1c(CN(C)C2CCCc3cccnc32)nc2ccccc21 (stereo not drawn) [Example 15c] | CXCR4 receptor (Homo sapiens) | 1.23 |
| CN(C)C/C=C\Cn1c(CN(C)C2CCCc3cccnc32)nc2ccccc21 (stereo not drawn) [Example 24] | CXCR4 receptor (Homo sapiens) | 1.19 |
| CN(Cc1nc2ccccc2n1CC1CCNCC1)C1CCCc2cccnc21 (stereo not drawn) [Example 6] | CXCR4 receptor (Homo sapiens) | 2.45 |
| CN(Cc1nc2ccccc2n1Cc1cccnc1)C1CCCc2cccnc21 (stereo not drawn) [Example 3] | CXCR4 receptor (Homo sapiens) | 2.60 |
| CN(Cc1nc2ccccc2n1CCN1CCOCC1)C1CCCc2cccnc21 (stereo not drawn) [Example 5] | CXCR4 receptor (Homo sapiens) | 2.09 |
| CN(Cc1nc2ccccc2n1CCCCN)C1CCCc2cccnc21 (stereo not drawn) [Example 13] | CXCR4 receptor (Homo sapiens) | 2.48 |
| CCN(Cc1nc2ccccc2n1CCCN)C1CCCc2cccnc21 (stereo not drawn) [Example 20] | CXCR4 receptor (Homo sapiens) | 1.45 |

---

system: HIV-1 IIIB; test: HOS HIV-1 infectivity assay; assay type: cell-based; conditions: Human immunodeficiency virus 1, IIIB; as determined by the infectivity assay; strain not stated in Table 2; read-out: Activity Level
Measure: IC50

| Compound | Measure | Recorded Measurement |
| --- | --- | --- |
| CC(C)CCN1CCC[C@@H](Cn2c(CN(C)[C@H]3CCCc4cccnc43)nc3ccccc32)C1 | IC50 | < 100 nM |
| CN(Cc1nc2ccccc2n1CCCNCc1ccccn1)C1CCCc2cccnc21 (stereo not shown) | IC50 | 100 to 500 nM |
| NCCCCn1c(CN(CCc2ccccc2)C2CCCc3cccnc32)nc2ccccc21 (stereo not shown) | IC50 | 500 to 10000 nM |
| CC(C)CCN1CCC[C@H](Cn2c(CN(C)[C@@H]3CCCc4cccnc43)nc3ccccc32)C1 | IC50 | < 100 nM |
| CN(Cc1nc2ccccc2n1C[C@H]1CCCN(CCO)C1)[C@H]1CCCc2cccnc21 | IC50 | < 100 nM |
| CC(C)N1CCC[C@H](Cn2c(CN(CCO)[C@H]3CCCc4cccnc43)nc3ccccc32)C1 | IC50 | < 100 nM |
| CN(Cc1nc2ccccc2n1C[C@H]1CCCN(Cc2cccnc2)C1)[C@H]1CCCc2cccnc21 | IC50 | < 100 nM |
| CN1CCOC(Cn2c(CN(C)C3CCCc4cccnc43)nc3ccccc32)C1 (stereo not shown) | IC50 | 100 to 500 nM |
| CC(C)N1CCC[C@H](Cn2c(CN(CCCO)[C@H]3CCCc4cccnc43)nc3ccccc32)C1 | IC50 | < 100 nM |
| NCCCCn1c(CN(Cc2ccccc2)C2CCCc3cccnc32)nc2ccccc21 (stereo not shown) | IC50 | 500 to 10000 nM |
| CN(Cc1nc2ccccc2n1C[C@@H]1CCCNC1)[C@H]1CCCc2cccnc21 [Example 75e] | IC50 | < 100 nM |
| NCCCn1c(CN(CCc2ccccc2)C2CCCc3cccnc32)nc2ccccc21 (stereo not shown) | IC50 | 500 to 10000 nM |
| CN(Cc1nc2ccccc2n1C[C@H]1CCCN(CCCO)C1)[C@H]1CCCc2cccnc21 | IC50 | < 100 nM |
| CN1CCC[C@@H]1CN1CCC[C@H](Cn2c(CN(C)[C@H]3CCCc4cccnc43)nc3ccccc32)C1 | IC50 | < 100 nM |
| CN(Cc1nc2ccccc2n1CCCCN)C1CCCc2cccnc21 (stereo not shown) | IC50 | 100 to 500 nM |
| CN(C)Cc1ccccc1-n1c(CN(C)C2CCCc3cccnc32)nc2ccccc21 (stereo not shown) | IC50 | 500 to 10000 nM |
| CN(Cc1nc2ccccc2n1CCCNS(C)(=O)=O)C1CCCc2cccnc21 (stereo not shown) | IC50 | 100 to 500 nM |
| CN(Cc1nc2ccccc2n1CCN1CCOCC1)C1CCCc2cccnc21 (stereo not shown) | IC50 | 100 to 500 nM |
| CC(C)CN(Cc1nc2ccccc2n1C[C@H]1CCCN(C(C)C)C1)[C@H]1CCCc2cccnc21 | IC50 | 100 to 500 nM |
| CN(Cc1nc2ccccc2n1C[C@H]1CCCN(Cc2cccs2)C1)[C@H]1CCCc2cccnc21 | IC50 | < 100 nM |
| CCCN(Cc1nc2ccccc2n1C[C@H]1CCCN(C)C1)[C@H]1CCCc2cccnc21 | IC50 | < 100 nM |
| CN(C)CCCCCn1c(CN(C)C2CCCc3cccnc32)nc2ccccc21 (stereo not shown) | IC50 | 100 to 500 nM |
| CN(Cc1nc2ccccc2n1Cc1cccnc1)C1CCCc2cccnc21 (stereo not shown) | IC50 | 500 to 10000 nM |
| CC(C)CCN(Cc1nc2ccccc2n1CC(C)(C)CN(C)C)C1CCCc2cccnc21 (stereo not shown) | IC50 | 500 to 10000 nM |
| CN(Cc1nc2ccccc2n1CC(=O)N1CCNCC1)C1CCCc2cccnc21 (stereo not shown) | IC50 | 500 to 10000 nM |
| NCCCn1c(CNC2CCCc3cccnc32)nc2ccccc21 (stereo not shown) | IC50 | < 100 nM |
| CN(Cc1nc2ccccc2n1C1CCNCC1)C1CCCc2cccnc21 (stereo not shown) [Example 11h] | IC50 | < 100 nM |
| CN1CCCCC1CCCn1c(CN(C)C2CCCc3cccnc32)nc2ccccc21 (stereo not shown) | IC50 | 100 to 500 nM |
| CN(Cc1nc2ccccc2n1CC1CNC1)C1CCCc2cccnc21 (stereo not shown) [Example 10d] | IC50 | < 100 nM |
| CN1CCC[C@H]1CN1CCC[C@H](Cn2c(CN(C)[C@H]3CCCc4cccnc43)nc3ccccc32)C1 | IC50 | < 100 nM |
| CN(C)CCCn1ccnc1CN(C)C1CCCc2cccnc21 (stereo not shown) | IC50 | 500 to 10000 nM |
| CN(C)/C(=N\C#N)N1CCC[C@H](Cn2c(CN(C)[C@H]3CCCc4cccnc43)nc3ccccc32)C1 | IC50 | 100 to 500 nM |
| CN1CCC[C@H](Cn2c(CN(C)[C@H]3CCCc4cccnc43)nc3ccccc32)C1 [Example 39i] | IC50 | < 100 nM |
| CC(C)CCNCCCn1c(CN(C)C2CCCc3cccnc32)nc2ccccc21 (stereo not shown) | IC50 | < 100 nM |
